Data provenance: the supplement of paper PMC11246515

Assay: total protein half-life in vivo (active degradation + dilution); higher = more stable protein
Conditions: wild type E. coli NCM3722; growth: C-lim chemostat; doubling time 12 h
Assignment: determine reported total protein half-life in vivo for the given sequences.
Please respond with the number in h and leave the unit unwritten.

Look up total protein half-life in vivo: MTKTVSTSKKPRKQHSPEFRSEALKLAERIGVTAAARELSLYESQLYNWRSKQQNQQTSSERELEMSTEIARLKRQLAERDEELAILQKAATYFAKRLK [P0CF66] 3.53

Next sequence up: `MTILSLSRFMLAGVLLASFNASAIPGFWQQGYGQGNTEYSVTEASGKTFTINCTGNPDQNGFYQHSVFLTLADDKMVSSHDDDTTITVVMDHQQYIIPSSLGWRNGDNAWFDFISNISEAGQFDVYVNDHKAGTFTADRKNAEKVLSTLGDCSND` 5.33

What would you report for MTDNNTALKKAGLKVTLPRLKILEVLQEPDNHHVSAEDLYKRLIDMGEEIGLATVYRVLNQFDDAGIVTRHNFEGGKSVFELTQQHHHDHLICLDCGKVIEFSDDSIEARQREIAAKHGIRLTNHSLYLYGHCAEGDCREDEHAHEGK [P0A9A9] ? 8.38

---

Assay: total protein half-life in vivo (active degradation + dilution); higher = more stable protein
Conditions: E. coli NCM3722 delta-clpP delta-lon delta-hslV; growth: N-lim chemostat; doubling time 6 h
Exercise: state measured total protein half-life in vivo for each of the sequences provided.
Report the value in h with no unit label.

Look up total protein half-life in vivo for this sequence: `MLHTANPVIKHKAGLLNLAEELSNVSKACKIMGVSRDTFYRYRELVAEGGVDAQINRSRRAPNLKNRTDEATEQAVVDYAVAFPTHGQHRASNELRKQGVFISDSGVRSVWLLHNLENLKRRY` 5.09

Same read-out for MKKIGVILSGCGVYDGSEIHEAVLTLLAISRSGAQAVCFAPDKQQVDVINHLTGEAMTETRNVLIEAARITRGEIRPLAQADAAELDALIVPGGFGAAKNLSNFASLGSECTVDRELKALAQAMHQAGKPLGFMCIAPAMLPKIFDFPLRLTIGTDIDTAEVLEEMGAEHVPCPVDDIVVDEDNKIVTTPAYMLAQNIAEAASGIDKLVSRVLVLAE [P0ABU5] ? 5.23

---

Experiment: total protein half-life in vivo (active degradation + dilution); higher = more stable protein
Conditions: E. coli NCM3722 delta-clpP; growth: N-lim chemostat; doubling time 6 h
readout_kind: total protein half-life in vivo (h)
Express it in h; write the number only.

I have this sequence here, `MSERLSITPLGPYIGAQISGADLTRPLSDNQFEQLYHAVLRHQVVFLRDQAITPQQQRALAQRFGELHIHPVYPHAEGVDEIIVLDTHNDNPPDNDNWHTDVTFIETPPAGAILAAKELPSTGGDTLWTSGIAAYEALSVPFRQLLSGLRAEHDFRKSFPEYKYRKTEEEHQRWREAVAKNPPLLHPVVRTHPVSGKQALFVNEGFTTRIVDVSEKESEALLSFLFAHITKPEFQVRWRWQPNDIAIWDNRVTQHYANADYLPQRRIMHRATILGDKPFYRAG` , and I need its recorded total protein half-life in vivo. 4.17

Consider next the sequence MQFSKMHGLGNDFMVVDAVTQNVFFSPELIRRLADRHLGVGFDQLLVVEPPYDPELDFHYRIFNADGSEVAQCGNGARCFARFVRLKGLTNKRDIRVSTANGRMVLTVTDDDLVRVNMGEPNFEPSAVPFRANKAEKTYIMRAAEQTILCGVVSMGNPHCVIQVDDVDTAAVETLGPVLESHERFPERANIGFMQVVKREHIRLRVYERGAGETQACGSGACAAVAVGIQQGLLAEEVRVELPGGRLDIAWKGPGHPLYMTGPAVHVYDGFIHL [P0A6K1] in the same way. 6.48

Also MPSTPEEKKKVLTRVRRIRGQIDALERSLEGDAECRAILQQIAAVRGAANGLMAEVLESHIRETFDRNDCYSREVSQSVDDTIELVRAYLK [P0AAP3] ? 5.29

And what about the sequence `MQTKKNEIWVGIFLLAALLAALFVCLKAANVTSIRTEPTYTLYATFDNIGGLKARSPVSIGGVVVGRVADITLDPKTYLPRVTLEIEQRYNHIPDTSSLSIRTSGLLGEQYLALNVGFEDPELGTAILKDGDTIQDTKSAMVLEDLIGQFLYGSKGDDNKNSGDAPAAAPGNNETTEPVGTTK` ? 6.3

---

Experiment: total protein half-life in vivo (active degradation + dilution); higher = more stable protein
Settings: E. coli NCM3722 delta-clpP delta-lon delta-hslV; growth: N-lim chemostat; doubling time 6 h
Provide the reported total protein half-life in vivo of each item.

Consider the sequence MMSQPAKVLLLYAHPESQDSVANRVLLKPATQLSNVTVHDLYAHYPDFFIDIPREQALLREHEVIVFQHPLYTYSCPALLKEWLDRVLSRGFASGPGGNQLAGKYWRSVITTGEPESAYRYDALNRYPMSDVLRPFELAAGMCRMHWLSPIIIYWARRQSAQELASHARAYGDWLANPLSPGGR [P0A756] and give its measured total protein half-life in vivo. 5.94 h

Can you check MKGGKRVQTARPNRINGEIRAQEVRLTGLEGEQLGIVSLREALEKAEEAGVDLVEISPNAEPPVCRIMDYGKFLYEKSKSSKEQKKKQKVIQVKEIKFRPGTDEGDYQVKLRSLIRFLEEGDKAKITLRFRGREMAHQQIGMEVLNRVKDDLQELAVVESFPTKIEGRQMIMVLAPKKKQ [P0A707] next? 5.98 h

Same for `MANWLNQLQSLLGQSSSSTSSSADQGLVKLLVPGALGGLAGLLVANKSARKLLTKYGTNALLVGGGAVAGTVLWNKYKDKIRAAHQDEPQFGAQSTPLDERTARLILALVFAAKSDGHIDAKERAAIDQQLRGAGVEEQGRVLIEQAIEQPLDPQRLATGVRNEEEALEIYFLSCAAIDIDHFMERSYLNALGDALKIPQDVRDGIERDLEQQKRTLAE` 5.29 h

Another sequence to look at: `MALLPDKEKLLRNFLRCANWEEKYLYIIELGQRLPELRDEDRSPQNSIQGCQSQVWIVMRQNAQGIIELQGDSDAAIVKGLIAVVFILYDQMTPQDIVNFDVRPWFEKMALTQHLTPSRSQGLEAMIRAIRAKAAALS` 4.3 h

---

Experiment: total protein half-life in vivo (active degradation + dilution); higher = more stable protein
Settings: wild type E. coli NCM3722; growth: N-lim chemostat; doubling time 12 h
readout_kind: total protein half-life in vivo (h)
Write the answer as a number in h, unit excluded.

Which total protein half-life in vivo is reported for this sequence? `MKEKTIIIVGGGQAAAMAAASLRQQGFTGELHLFSDERHLPYERPPLSKSMLLEDSPQLQQVLPANWWQENNVHLHSGVTIKTLGRDTRELVLTNGESWHWDQLFIATGAAARPLPLLDALGERCFTLRHAGDAARLREVLQPERSVVIIGAGTIGLELAASATQRRCKVTVIELAATVMGRNAPPPVQRYLLQRHQQAGVRILLNNAIEHVVDGEKVELTLQSGETLQADVVIYGIGISANEQLAREANLDTANGIVIDEACRTCDPAIFAGGDVAITRLDNGALHRCESWENANNQAQIAAAAMLGLPLPLLPPPWFWSDQYSDNLQFIGDMRGDDWLCRGNPETQKAIWFNLQNGVLIGAVTLNQGREIRPIRKWIQSGKTFDAKLLIDENIALKSL` 1.3

Thanks! And MTISELLQYCMAKPGAEQSVHNDWKATQIKVEDVLFAMVKEVENRPAVSLKTSPELAELLRQQHSDVRPSRHLNKAHWSTVYLDGSLPDSQIYYLVDASYQQAVNLLPEEKRKLLVQL [P0AF50] ? 8.4

Now consider `MKMIEVVAAIIERDGKILLAQRPAQSDQAGLWEFAGGKVEPDESQRQALVRELREELGIEATVGEYVASHQREVSGRIIHLHAWHVPDFHGTLQAHEHQALVWCSPEEALQYPLAPADIPLLEAFMALRAARPAD` and answer again. 6.31

`MSAFTPASEVLLRHSDDFEQSRILFAGDLQDDLPARLDTAASRAHTQQFHHWQVLSRQMGDNARFSLVATADDVADCDTLIYYWPKNKPEAQFQLMNLLSLLPVGTDIFVVGENRSGVRSAEQMLADYAPLNKVDSARRCGLYFGRLEKQPVFDAEKFWGEYSVDGLTVKTLPGVFSRDGLDVGSQLLLSTLTPHTKGKVLDVGCGAGVLSVAFARHSPKIRLTLCDVSAPAVEASRATLAANGVEGEVFASNVFSEVKGRFDMIISNPPFHDGMQTSLDAAQTLIRGAVRHLNSGGELRIVANAFLPYPDVLDETFGFHEVIAQTGRFKVYRAIMTRQAKKG` , same question. 11.1

---

Assay: total protein half-life in vivo (active degradation + dilution); higher = more stable protein
Conditions: wild type E. coli NCM3722; growth: P-lim chemostat; doubling time 12 h
Answer each item with its documented total protein half-life in vivo.
Unit h implied. Number only.

Endpoint output: total protein half-life in vivo of `MPLLHLLRQNPVIAAVKDNASLQLAIDSECQFISVLYGNICTISNIVKKIKNAGKYAFIHVDLLEGASNKEVVIQFLKLVTEADGIISTKASMLKAARAEGFFCIHRLFIVDSISFHNIDKQVAQSNPDCIEILPGCMPKVLGWVTEKIRQPLIAGGLVCDEEDARNAINAGVVALSTTNTGVWTLAKKLL` . Value? 8.94

Can you handle `MRLGTFHKKKRFYINKIKINFLSFLFRNKINNQITDPAQVKSCLIIHDNNKLGDLIVLSSIYRELYSKGVKITLLTNRKGGEFLSNNKNIFEFCIKESTGFLEMLTLCKHLRDLQFDIVLDPFETMPSFKHSLILSSLKDSYILGFDHWYKRYYSFYHPHDECLKEHMSTRAIEILKHIYGEGKFSTNYDLHLPVDVEDKIKEFIGDTRIVIINPLGAKKICRLTFEQIKVIYQEVKTHFENYRIIFTGLPQDLLTIPILEIETLPFDEFIYTVALTKYSDFVISVDTALVHIAAAYHKPTLAFYPNSRTPEYPSHLIWSPNHHKSIQIVSPTYTVKDIDTETLTNSVKRLSCIDKK` next? 12.2

What about MKKVAIVGLGWLGMPLAMSLSARGWQVTGSKTTQDGVEAARMSGIDSYLLRMEPELVCDSDDLDALMDADALVITLPARRSGPGDEFYLQAVQELVDSALAHRIPRIIFTSSTSVYGDAQGTVKETTPRNPVTNSGRVLEELEDWLHNLPGTSVDILRLAGLVGPGRHPGRFFAGKTAPDGEHGVNLVHLEDVIGAITLLLQAPKGGHIYNICAPAHPARNVFYPQMARLLGLEPPQFRNSLDSGKGKIIDGSRICNELGFEYQYPDPLVMPLE [P0AD12] ? 11.1
